Experiment: gradient 5% acetonitrile 3 min, to 50% in 2 min, to 85% in 15 min, held 3 min, 100 µL/min
Details: column: Zorbax Extend-C18 2.1 x 50 mm; eluents: water / acetonitrile, 0.1% formic acid

{"molecule": "Cc1ccc(C)c(NC(=O)CN2C(=O)CCCc3cc(S(=O)(=O)N4CCCC4)ccc32)c1", "RP-LC retention time": "918 s"}
{"molecule": "COc1ccc(CCNC(=O)C2CCN(C(=O)C3Sc4ccccc4NC3=O)CC2)cc1OC (centres undefined)", "RP-LC retention time": "694 s"}
{"molecule": "O=S(=O)(CCOc1ccc(F)cc1)Nc1ccc(N2CCOCC2)cc1", "RP-LC retention time": "767 s"}
{"molecule": "O=C(c1ccccn1)N1CCC(n2c(-c3ccoc3)nc3cccnc32)C1 (centres undefined)", "RP-LC retention time": "631 s"}
{"molecule": "Cc1cc(=O)n(CC(=O)Nc2ccc(Br)cc2F)c(N2CCc3ccccc3C2)n1", "RP-LC retention time": "953 s"}
{"molecule": "CCCn1c(=O)c(C)nc2cc(-c3noc(COc4ccc(F)cc4)n3)ccc21", "RP-LC retention time": "1060 s"}
{"molecule": "Cc1nc(-n2cccc2)sc1C(=O)NCCN(C)C", "RP-LC retention time": "547 s"}
{"molecule": "CC(C)n1cnc2cc(CNC(=O)c3cc(F)ccc3F)ccc21", "RP-LC retention time": "610 s"}
{"molecule": "CC1=C(c2ccc(C(C)C)cc2)S(=O)(=O)N=C1N1CCCN(C(=O)c2ccoc2)CC1", "RP-LC retention time": "911 s"}
{"molecule": "Cc1ccc(CNc2c(-c3ccc(N(C)C)cc3)nc3ncccn23)cc1", "RP-LC retention time": "889 s"}
{"molecule": "O=C(NCCC1CCN(C(=O)Nc2ccccc2)CC1)c1ccoc1", "RP-LC retention time": "704 s"}
{"molecule": "Cc1ccc(-n2cc3c(c(C(=O)N4CCCC4)c2=O)CC(C)(C)CC3=O)cc1", "RP-LC retention time": "758 s"}
{"molecule": "Cc1ccc(S(=O)(=O)N2CCC(n3cnc4c(C)cccc4c3=O)CC2)cc1C", "RP-LC retention time": "1050 s"}
{"molecule": "O=C1NCCCn2cc(S(=O)(=O)Nc3ccc(Oc4ccccc4)cc3)cc21", "RP-LC retention time": "768 s"}
{"molecule": "O=C(c1cccc(Cl)c1)N1CCN(C(=O)c2nnn3c2COC(c2ccccc2)C3)CC1 (centres undefined)", "RP-LC retention time": "900 s"}
{"molecule": "CC1CN2C=NC(N3CCN(C(=O)Nc4cc(F)cc(F)c4)CC3)=CC2=N1 (centres undefined)", "RP-LC retention time": "664 s"}
{"molecule": "Cc1ccc(NC(=O)C2CCCN(S(=O)(=O)c3cn(C(C)C)cn3)C2)cc1C (centres undefined)", "RP-LC retention time": "829 s"}
{"molecule": "COc1ccc(C2Cn3nnc(C(=O)N4CCN(C(=O)c5cc(F)ccc5F)CC4)c3CO2)cc1 (centres undefined)", "RP-LC retention time": "872 s"}
{"molecule": "Cc1ccc(C(=O)N2CCC(Nc3ncnc4c3CCC4)C2)s1 (centres undefined)", "RP-LC retention time": "585 s"}

Source: the METLIN SMRT retention time set (Domingo-Almenara et al. 2019)
